Test system: gene editing with dCas9
Test: Screen of 322 new SSAP proteins, gene editing activity with dCas9 (Table 5)
Format: cell-based
Conditions: normalized
Measurement name: dCas9 with SSAP activity (normalized)
Please state the value as a number alone, without comment.

Recorded dCas9 with SSAP activity (normalized) of SSAP_131: SEQ ID NO: 300; Thermoclostridium stercorarium (protein, listed as Thermoclostridium stercorarium) TTVNQTELKNKLAEKAKTPAKTGNTVFDLIRKMEPEIKRALPKQISPERFARIAMTAVRNTPKLQACEPISFIAALMQSAQLGLEPNTPLGQAYLIPYGKEVQFQLGYQGMLTLAYRTGEYQSIYAMPVYANDEFEYEYGLNEKLVHKPAPDPEGEPIYYYAVYKLKNGGHGFVVMSRQQIERHRDKYSPSAKQGKFSPWNTDFDSMAKKTVLKQLLKYAPKSVEFATQIAQDETIKTEIAEDMTEVQGIEVEYEATDDQENQENQEQED , please. −0.946
